Every entry's value here was drawn from patent US20090042964A1.

study target: human BACE1 (Homo sapiens)
protocol details: Fluorescent kinetic assay, evaluation of BACE1 binding affinity of test compounds
Format: biochemical
condition parameters: 10 nM human BACE1, 25 μM substrate WABC-6, pH 4.5, room temperature; read-out: BACE1 IC50
pIC50: −log10 of the molar value.
Entries and their measured pIC50 follow.

Guide cases for pIC50, answers given:
[[record]]
compound = "CC(C)c1cc(C2(c3ccccc3)N=C(N)N(C)C2=O)ccc1OC(F)F (stereo in doubt) [Example 138]"
measurement_kind = "pIC50"
recorded_value = "> 7.00"

[[record]]
compound = "COC/C=C/c1cccc(C2(c3ccc(OC(F)F)c(C)c3)N=C(N)N(C)C2=O)c1 (stereo not shown) [Example 62]"
measurement_kind = "pIC50"
recorded_value = "> 7.00"

[[record]]
compound = "Cc1cc([C@]2(c3ccc(F)cc3)N=C(N)N(C)C2=O)ccc1OC(F)F [Example 4A]"
measurement_kind = "pIC50"
recorded_value = "< 6.00"

[[record]]
compound = "CC(C)c1cc(C2(c3ccccc3)N=C(N)N(C)C2=O)ccc1OC(F)F (stereo in doubt) [Example 139]"
measurement_kind = "pIC50"
recorded_value = "< 6.00"

[[record]]
compound = "CCc1cc([C@@]2(c3ccc(F)c(OCCCF)c3)N=C(N)N(C)C2=O)ccc1OC(F)F [Example 121]"
measurement_kind = "pIC50"
recorded_value = "< 6.00"

[[record]]
compound = "CN1C(=O)[C@](c2ccc(F)c(OCC(F)F)c2)(c2ccc(OC(F)F)c(C3CC3)c2)N=C1N [Example 125]"
measurement_kind = "pIC50"
recorded_value = "> 7.00"

[[record]]
compound = "CN1C(=O)C(c2ccc(OC(F)F)c(Cl)c2)(c2ccc(F)c(OCC(F)F)c2)N=C1N (stereo not shown) [Example 100]"
measurement_kind = "pIC50"
recorded_value = "> 7.00"

[[record]]
compound = "CN1C(=O)[C@@](c2ccccc2)(c2ccc(OC(F)F)c(CCF)c2)N=C1N (single isomer, unassigned) [Example 76]"
measurement_kind = "pIC50"
recorded_value = "< 6.00"

[[record]]
compound = "CCCOc1cc(C2(c3ccc(OC(F)F)c(C)c3)N=C(N)N(C)C2=O)ccc1F (stereo in doubt) [Example 116]"
measurement_kind = "pIC50"
recorded_value = "> 7.00"


Please look at the following compound next.
Value lookup for pIC50; key = Cc1cc([C@@]2(c3cccc(OCCC(F)F)c3)N=C(N)N(C)C2=O)ccc1OC(F)F [Example 128]
6.00 to 6.96

----------
Entries and their measured pIC50 follow.
study target: human BACE1 (Homo sapiens, UniProt P56817)
Sequence (P56817 46-501): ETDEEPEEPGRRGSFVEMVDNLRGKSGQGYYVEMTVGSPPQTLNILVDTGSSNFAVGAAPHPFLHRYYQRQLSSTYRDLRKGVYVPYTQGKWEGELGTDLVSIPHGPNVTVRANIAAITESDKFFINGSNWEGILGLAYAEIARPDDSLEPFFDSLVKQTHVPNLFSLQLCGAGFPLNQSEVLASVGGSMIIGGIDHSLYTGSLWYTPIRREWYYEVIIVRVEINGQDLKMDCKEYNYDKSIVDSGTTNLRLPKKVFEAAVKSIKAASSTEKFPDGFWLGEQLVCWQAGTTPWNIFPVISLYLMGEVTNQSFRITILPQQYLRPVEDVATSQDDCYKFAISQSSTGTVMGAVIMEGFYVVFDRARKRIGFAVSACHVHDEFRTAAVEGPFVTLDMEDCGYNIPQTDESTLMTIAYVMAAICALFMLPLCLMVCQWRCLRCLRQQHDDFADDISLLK
protocol details: Fluorescent kinetic assay, evaluation of BACE1 binding affinity of test compounds
Type: biochemical
condition parameters: 10 nM human BACE1, 25 μM substrate WABC-6, pH 4.5, room temperature; read-out: BACE1 IC50
pIC50: −log10 of the molar value.

Guide cases for pIC50, answers given:
[[record]]
compound = "CCOc1cc(C2(c3ccc(OC(F)F)c(Cl)c3)N=C(N)N(C)C2=O)ccc1F (stereo not shown)"
measurement_kind = "pIC50"
recorded_value = "> 7.00"

[[record]]
compound = "CN1C(=O)C(c2cccc(OCC(F)F)c2)(c2ccc(OC(F)F)c(Cl)c2)N=C1N (stereo not shown)"
measurement_kind = "pIC50"
recorded_value = "> 7.00"


Value lookup for pIC50; key = Cc1cc([C@@]2(c3ccc(F)c(OCCC(F)F)c3)N=C(N)N(C)C2=O)ccc1OC(F)F
< 6.00

Value lookup for pIC50; key = CN1C(=O)C(c2cccc(/C=C/CCF)c2)(c2ccc(OC(F)F)c(Cl)c2)N=C1N (stereo not shown)
> 7.00

Value lookup for pIC50; key = CCOc1cc(C2(c3ccc(OC(F)F)c(C)c3)N=C(N)N(C)C2=O)ccc1F (stereo not shown)
> 7.00

Value lookup for pIC50; key = CCOc1cccc(C2(c3ccc(OC(F)F)c(Cl)c3)N=C(N)N(C)C2=O)c1 (stereo not shown)
6.00 to 6.96

Value lookup for pIC50; key = CCCc1cc([C@]2(c3ccccc3)N=C(N)N(C)C2=O)ccc1OC(F)F (single isomer, unassigned) [Example 79]
> 7.00

Value lookup for pIC50; key = CN1C(=O)[C@@](c2cccc(C#CCCCO)c2)(c2ccc(OC(F)F)c(C3CC3)c2)N=C1N (single isomer, unassigned)
6.00 to 6.96

Value lookup for pIC50; key = CCCC#Cc1cccc([C@@]2(c3ccc(OC(F)F)c(C)c3)N=C(N)N(C)C2=O)c1
> 7.00

Value lookup for pIC50; key = Cc1cc([C@@]2(c3cccc(C#CCF)c3)N=C(N)N(C)C2=O)ccc1OC(F)F
< 6.00

Value lookup for pIC50; key = Cc1cc([C@]2(c3cccc(C#CCCF)c3)N=C(N)N(C)C2=O)ccc1OC(F)F
> 7.00

Value lookup for pIC50; key = CC#Cc1cccc([C@@]2(c3ccc(OC(F)F)c(C4CC4)c3)N=C(N)N(C)C2=O)c1 (single isomer, unassigned)
> 7.00

Value lookup for pIC50; key = CCc1cc([C@]2(c3ccc(F)c(C#CCC(C)C)c3)N=C(N)N(C)C2=O)ccc1OC(F)F
> 7.00

Value lookup for pIC50; key = CCc1cc([C@@]2(c3ccc(F)c(C#CCC(C)C)c3)N=C(N)N(C)C2=O)ccc1OC(F)F
< 6.00

Value lookup for pIC50; key = CC(C)CC#Cc1cc(C2(c3ccc(OC(F)F)c(CCF)c3)N=C(N)N(C)C2=O)ccc1F (stereo not shown)
> 7.00

Value lookup for pIC50; key = CN1C(=O)[C@](c2ccc(F)c(C#CC3CC3)c2)(c2ccc(OC(F)F)c(CCF)c2)N=C1N (single isomer, unassigned)
> 7.00

Value lookup for pIC50; key = CCc1cc([C@]2(c3ccc(F)c(OCCC(F)F)c3)N=C(N)N(C)C2=O)ccc1OC(F)F
> 7.00

Value lookup for pIC50; key = CCc1cc([C@]2(c3ccc(F)c(C#CC4CC4)c3)N=C(N)N(C)C2=O)ccc1OC(F)F
> 7.00

Value lookup for pIC50; key = Cc1cc([C@]2(c3ccc(F)c(OCCC(F)F)c3)N=C(N)N(C)C2=O)ccc1OC(F)F
> 7.00

Value lookup for pIC50; key = CCCOc1cc([C@]2(c3ccc(OC(F)F)c(C)c3)N=C(N)N(C)C2=O)ccc1F
6.00 to 6.96

Value lookup for pIC50; key = CN1C(=O)C(c2ccc(F)c(OCCC(F)F)c2)(c2ccc(OC(F)F)c(C3CC3)c2)N=C1N (stereo not shown)
> 7.00

Value lookup for pIC50; key = CCc1cc(C2(c3ccc(F)c(OCCCF)c3)N=C(N)N(C)C2=O)ccc1OC(F)F (stereo in doubt) [Example 122]
> 7.00
